Measured on: neutrophil elastase (Homo sapiens (Human))
Sequence (P08246 30-247): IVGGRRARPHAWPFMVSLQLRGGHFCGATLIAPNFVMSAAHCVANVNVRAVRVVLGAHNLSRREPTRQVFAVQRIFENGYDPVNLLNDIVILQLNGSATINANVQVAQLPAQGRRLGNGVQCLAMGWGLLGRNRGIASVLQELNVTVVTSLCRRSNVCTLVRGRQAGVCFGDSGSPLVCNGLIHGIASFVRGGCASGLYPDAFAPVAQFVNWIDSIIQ
Method summary: Human Neutrophil Elastase Assay
Experimental setup: substrate MeOSuc-Ala-Ala-Pro-Val-AMC
Measured IC50 of individual entries

// known answers, use as guide
Compound: CNC(=O)c1cc(C#N)ccc1[C@@H]1C(C(C)=O)=C(C)N(c2cccc(C(F)(F)F)c2)C(=O)N1C
Measured on: neutrophil elastase (Homo sapiens (Human))
Readout name: IC50
Recorded value: < 1 nM
--
Compound: CCOC(=O)C1=C(C)N(c2cccc(C(F)(F)F)c2)C(=O)N(C)C1c1ccc(C#N)cc1C(=O)N1CCC(N)CC1 (stereo not shown)
Measured on: neutrophil elastase (Homo sapiens (Human))
Readout name: IC50
Recorded value: 4.8 nM
--
Compound: CCOC(=O)C1=C(C)N(c2cccc(C(F)(F)F)c2)C(=O)N(C)C1c1ccc(C#N)cc1C(=O)NCC(F)F (stereo not shown)
Measured on: neutrophil elastase (Homo sapiens (Human))
Readout name: IC50
Recorded value: < 1 nM

Now for another entry.
Query: Could you share which IC50 value was measured for CC(=O)C1=C(C)N(c2cccc(C(F)(F)F)c2)C(=O)N(C)C1c1ccc(C#N)cc1C(=O)N(C)Cc1ccno1 (stereo not shown) ?
Reply: < 1 nM
